# System: NCI-H1915
# assay.details: relative viability (nuclei count vs DMSO), 5 days (fraction); higher = more cells survive
# conditions: first compound 1.265 µM
We label by threshold. Values of relative viability strictly beneath 0.4 are Met. Values of 0.4 and up are Not met.

The examples below pair each entry with its known result.
IN: Dear colleague, could you confirm whether relative viability of O=C(O)c1ccc(-c2c[nH]c3ncc(-c4ccccc4)cc23)cc1C1CCCC1 + O=C(c1cc(Cc2n[nH]c(=O)c3ccccc23)ccc1F)N1CCN(C(=O)C2CC2)CC1 [Olaparib] (partner 8 µM) falls below 0.4? Thanks.
OUT: Met

IN: Next compound: O=C(O)c1ccc(-c2c[nH]c3ncc(-c4ccccc4)cc23)cc1C1CCCC1 + CC(=O)c1c(C)c2cnc(Nc3ccc(N4CCNCC4)cn3)nc2n(C2CCCC2)c1=O [Palbociclib] (partner 0.5 µM)
OUT: Not met

IN: Quick one: O=C(O)c1ccc(-c2c[nH]c3ncc(-c4ccccc4)cc23)cc1C1CCCC1 + CS(=O)(=O)N1CCN(Cc2cc3nc(-c4cccc5[nH]ncc45)nc(N4CCOCC4)c3s2)CC1 [Pictilisib] (partner 1 µM)
OUT: Not met

IN: Now give it for O=C(O)c1ccc(-c2c[nH]c3ncc(-c4ccccc4)cc23)cc1C1CCCC1 + N=C(N)NC(=N)NCCc1ccccc1 [Phenformin] (partner 250 µM) too.
OUT: Met

Here is the next item to consider.
IN: Just wondering, is relative viability of O=C(O)c1ccc(-c2c[nH]c3ncc(-c4ccccc4)cc23)cc1C1CCCC1 + C[C@]1(O)C[C@@H](c2nc(-c3ccc4ccc(-c5ccccc5)nc4c3)c3c(N)nccn32)C1 [Linsitinib] (partner 1 µM) below 0.4?
OUT: Not met

* * *

# System: NCI-H1666
# assay.details: relative viability (nuclei count vs DMSO), 5 days (fraction); higher = more cells survive
# conditions: first compound 0.04 µM
measured.parameter: relative viability
Response field accepts a number only; no unit should be typed.

Reference set, count: 3
IN: Fill in the blank: the reported relative viability of O=C(O)c1ccc(-c2c[nH]c3ncc(-c4ccccc4)cc23)cc1C1CCCC1 + CC(=O)c1c(C)c2cnc(Nc3ccc(N4CCNCC4)cn3)nc2n(C2CCCC2)c1=O [Palbociclib] (partner 0.5 µM) is ____.
OUT: 0.604

IN: Same thing, different compound: O=C(O)c1ccc(-c2c[nH]c3ncc(-c4ccccc4)cc23)cc1C1CCCC1 + CC1(C)CCC(c2ccc(Cl)cc2)=C(CN2CCN(c3ccc(C(=O)NS(=O)(=O)c4ccc(N[C@H](CCN5CCOCC5)CSc5ccccc5)c(S(=O)(=O)C(F)(F)F)c4)cc3)CC2)C1 [Navitoclax] (partner 0.5 µM)
OUT: 1.02

IN: Same lookup for O=C(O)c1ccc(-c2c[nH]c3ncc(-c4ccccc4)cc23)cc1C1CCCC1 + Cc1cc(Nc2cc(N3CCN(C)CC3)nc(Sc3ccc(NC(=O)C4CC4)cc3)n2)n[nH]1 [Tozasertib] (partner 0.1 µM) , please.
OUT: 0.627

Next:
IN: Need relative viability, item O=C(O)c1ccc(-c2c[nH]c3ncc(-c4ccccc4)cc23)cc1C1CCCC1 + C[C@]1(O)C[C@@H](c2nc(-c3ccc4ccc(-c5ccccc5)nc4c3)c3c(N)nccn32)C1 [Linsitinib] (partner 1 µM)
OUT: 0.755

IN: O=C(O)c1ccc(-c2c[nH]c3ncc(-c4ccccc4)cc23)cc1C1CCCC1 + CC(=O)Nc1cccc(-n2c(=O)n(C3CC3)c(=O)c3c(Nc4ccc(I)cc4F)n(C)c(=O)c(C)c32)c1 [Trametinib] (partner 0.02 µM) , same question.
OUT: 0.916

* * *

# Tested on: LU99A
# assay.details: relative viability (nuclei count vs DMSO), 5 days (fraction); higher = more cells survive
# conditions: first compound 0.8 µM
measured.parameter: relative viability
Reply: number alone, nothing else.

Observe how each entry below is paired with its result.
IN: Could you share which relative viability value was measured for Oc1nc(-c2ccc(C(F)(F)F)cc2)nc2c1CSCC2 [XAV939] + Cc1cc(Nc2cc(N3CCN(C)CC3)nc(Sc3ccc(NC(=O)C4CC4)cc3)n2)n[nH]1 [Tozasertib] (partner 0.1 µM) ?
OUT: 0.237

IN: Follow-up entry: Oc1nc(-c2ccc(C(F)(F)F)cc2)nc2c1CSCC2 [XAV939] + O=C(CCCCCCC(=O)Nc1ccccc1)NO [Vorinostat] (partner 1 µM)
OUT: 0.507

Attention now turns to another entry.
IN: Data request, read-out relative viability, for Oc1nc(-c2ccc(C(F)(F)F)cc2)nc2c1CSCC2 [XAV939] + NC(=O)Nc1cc(-c2cccc(F)c2)sc1C(=O)N[C@H]1CCCNC1 [AZD7762] (partner 0.2 µM)
OUT: 0.339

* * *

# Test system: HOP-62
# assay.details: relative viability (nuclei count vs DMSO), 5 days (fraction); higher = more cells survive
# conditions: first compound 0.1265 µM
relative viability: recorded values
Respond using a number only.

Past entries and their recorded results:
IN: Endpoint output: relative viability of O=C(O)c1ccc(-c2c[nH]c3ncc(-c4ccccc4)cc23)cc1C1CCCC1 + Cc1nc(NC(=O)N2CCC[C@H]2C(N)=O)sc1-c1ccnc(C(C)(C)C(F)(F)F)c1 [Alpelisib] (partner 2 µM) . Value?
OUT: 1.02

IN: Repeat for the following compound: O=C(O)c1ccc(-c2c[nH]c3ncc(-c4ccccc4)cc23)cc1C1CCCC1 + CS(=O)(=O)N1CCN(Cc2cc3nc(-c4cccc5[nH]ncc45)nc(N4CCOCC4)c3s2)CC1 [Pictilisib] (partner 1 µM)
OUT: 0.884

New cases:
IN: # relative viability lookup, item O=C(O)c1ccc(-c2c[nH]c3ncc(-c4ccccc4)cc23)cc1C1CCCC1 + N=C(N)NC(=N)NCCc1ccccc1 [Phenformin] (partner 250 µM)
OUT: 0.669

IN: Next compound up: O=C(O)c1ccc(-c2c[nH]c3ncc(-c4ccccc4)cc23)cc1C1CCCC1 + NC(=O)Nc1cc(-c2cccc(F)c2)sc1C(=O)N[C@H]1CCCNC1 [AZD7762] (partner 0.2 µM)
OUT: 0.795

* * *

# Tested on: NCI-H838
# assay.details: relative viability (nuclei count vs DMSO), 5 days (fraction); higher = more cells survive
# conditions: first compound 0.03162 µM
measured.parameter: relative viability

IN: Return reported relative viability; argument: NC(=O)Nc1cc(-c2cccc(F)c2)sc1C(=O)N[C@H]1CCCNC1 [AZD7762] + CS(=O)(=O)N1CCN(Cc2cc3nc(-c4cccc5[nH]ncc45)nc(N4CCOCC4)c3s2)CC1 [Pictilisib] (partner 1 µM)
OUT: 0.45

***
IN: Sample NC(=O)Nc1cc(-c2cccc(F)c2)sc1C(=O)N[C@H]1CCCNC1 [AZD7762] + O=C(CCCCCCC(=O)Nc1ccccc1)NO [Vorinostat] (partner 1 µM) — what was its relative viability?
OUT: 0.726

IN: Input NC(=O)Nc1cc(-c2cccc(F)c2)sc1C(=O)N[C@H]1CCCNC1 [AZD7762] + CC(=O)c1c(C)c2cnc(Nc3ccc(N4CCNCC4)cn3)nc2n(C2CCCC2)c1=O [Palbociclib] (partner 0.5 µM)
OUT: 0.198

IN: Follow-up item: NC(=O)Nc1cc(-c2cccc(F)c2)sc1C(=O)N[C@H]1CCCNC1 [AZD7762] + C[C@]1(O)C[C@@H](c2nc(-c3ccc4ccc(-c5ccccc5)nc4c3)c3c(N)nccn32)C1 [Linsitinib] (partner 1 µM)
OUT: 1.01

* * *

# Tested on: EMC-BAC-2
# assay.details: relative viability (nuclei count vs DMSO), 5 days (fraction); higher = more cells survive
# conditions: first compound 0.1265 µM
Decide using relative viability alone. Strictly below 1: y. Equal to or above 1: n.

IN: Decide: relative viability of O=C(O)c1ccc(-c2c[nH]c3ncc(-c4ccccc4)cc23)cc1C1CCCC1 + CC(C)C[C@H](NC(=O)[C@H](Cc1ccccc1)NC(=O)c1cnccn1)B(O)O [Bortezomib] (partner 0.002 µM) strictly below 1?
OUT: n

IN: Same again, this time with O=C(O)c1ccc(-c2c[nH]c3ncc(-c4ccccc4)cc23)cc1C1CCCC1 + C[C@]1(O)C[C@@H](c2nc(-c3ccc4ccc(-c5ccccc5)nc4c3)c3c(N)nccn32)C1 [Linsitinib] (partner 1 µM)
OUT: y

IN: What about O=C(O)c1ccc(-c2c[nH]c3ncc(-c4ccccc4)cc23)cc1C1CCCC1 + O=C(c1cc(Cc2n[nH]c(=O)c3ccccc23)ccc1F)N1CCN(C(=O)C2CC2)CC1 [Olaparib] (partner 8 µM) ?
OUT: y

IN: Also O=C(O)c1ccc(-c2c[nH]c3ncc(-c4ccccc4)cc23)cc1C1CCCC1 + NC(=O)Nc1cc(-c2cccc(F)c2)sc1C(=O)N[C@H]1CCCNC1 [AZD7762] (partner 0.2 µM) , if possible.
OUT: n

Consider the record given below.
IN: Consider O=C(O)c1ccc(-c2c[nH]c3ncc(-c4ccccc4)cc23)cc1C1CCCC1 + CC1(C)CCC(c2ccc(Cl)cc2)=C(CN2CCN(c3ccc(C(=O)NS(=O)(=O)c4ccc(N[C@H](CCN5CCOCC5)CSc5ccccc5)c(S(=O)(=O)C(F)(F)F)c4)cc3)CC2)C1 [Navitoclax] (partner 0.5 µM) . Does its relative viability lie strictly below 1?
OUT: n

Sourced from the supplement of paper PMC10307832
